Every entry's value here was drawn from patent US8410302B2.

- Test system: Erysiphae graminis
- assay-details: Fungicidal activity against barley powdery mildew (BPM) disease, control value
- Format: in vivo
- assay-setup: Hordeum vulgare, 168 h; 2 ppm, barley powdery mildew; read-out: BPM control value (C.V.)
readout-kind: pest or weed control at 2 ppm (%)
One number for each entry, in %.

Example entries and their recorded answers appear below.
>>> df
                                chem_smiles                   readout_kind  measured_value
0  CO/N=C(/C(=O)OC)c1ccccc1COc1cccc(C=C(Cl)Cl)c1Cl  pest or weed control at 2 ppm             100
1  CO/N=C(/C(=O)OC)c1ccccc1COc1cccc(C=C(Cl)Br)c1  pest or weed control at 2 ppm              15
2  CNC(=O)/C(=N/OC)c1ccccc1COc1cccc(C=C(Cl)Cl)c1  pest or weed control at 2 ppm             100
3  CO/N=C(/C(=O)OC)c1ccccc1COc1ccc(C=C(F)F)cc1  pest or weed control at 2 ppm              15
4  CO/N=C(/C(=O)OC)c1ccccc1COc1ccc(C=C(Br)Br)cc1  pest or weed control at 2 ppm             100

Consider the record given below.
Quick one: pest or weed control at 2 ppm of CO/N=C(/C(=O)OC)c1ccccc1COc1ccc(C=C(Cl)Cl)cc1 ?
20
